# System: GHRH induced GH secretion in primary cultures of rat pituitary cells
# Procedure Details: In vitro inhibition of GHRH induced GH secretion (GH vitro +GHRH)
# Assay type: cell-based
Label met when IC50 < 2 nM; otherwise not met.

I wonder whether N#Cc1cc(S(=O)(=O)N2C(=O)N(CCCCCN)C(=O)C2Cc2c[nH]c3ccccc23)ccc1Oc1ccc(N)cc1 (centres unmarked) [Compound 42] has IC50 below 2 nM. Can you tell? not met

Would you mind doing Cc1cccc2c(CC3C(=O)N(CCCCCN)C(=O)N3S(=O)(=O)c3ccc(Oc4ccc(O)cc4)c(CN)c3)c[nH]c12 (centres unmarked) [Compound 45] as well? not met

Would you mind doing Cc1cccc2c(CC3C(=O)N(CCCCCN)C(=O)N3S(=O)(=O)c3ccc(Oc4ccc(O)c(Cl)c4)c(C#N)c3)c[nH]c12 (centres unmarked) [Compound 44] as well? met

Would you mind doing C[C@@H](O)[C@@H]1NC(=O)[C@H](CCCCN)NC(=O)[C@@H](Cc2c[nH]c3ccccc23)NC(=O)[C@H](Cc2ccccc2)NC(=O)[C@@H](NC(=O)[C@H](N)Cc2ccccc2)CSSC[C@@H](C(=O)N[C@H](CO)[C@@H](C)O)NC1=O [Octreotride, Octreotide, reference compound] as well? met

Would you mind doing Cc1cccc2c(CC3C(=O)N(CCCCCN)C(=O)N3S(=O)(=O)c3ccc(Oc4ccc(O)cc4)c(C#N)c3)c[nH]c12 (centres unmarked) [Compound 14] as well? not met

====

# Test system: GH secretion
# Procedure Details: GH secretion in vivo, rat, intraduodenal (enteral) application, 1 h (basal)
# Condition: enteral (intraduodenal) application
Metric: enteral ID50 (GH secretion) (mg/kg)
Numeric only. Scale: mg/kg

Which enteral ID50 (GH secretion) value is on record for Cc1cccc2c(CC3C(=O)N(CCCCCN)C(=O)N3S(=O)(=O)c3ccc(Oc4ccc(O)c(Cl)c4)c(C(=O)N(C)C)c3)c[nH]c12 (racemic) [(+/−)-43] ? 3.4

Would you mind doing Cc1cccc2c(CC3C(=O)N(CCCCC(C)(C)N)C(=O)N3S(=O)(=O)c3ccc(Oc4ccc(O)c(Cl)c4)c(C(=O)N(C)C)c3)c[nH]c12 (stereo not shown) [Compound 47] as well? 0.5

Would you mind doing Cc1cccc2c(CC3C(=O)N(CCCCCN)C(=O)N3S(=O)(=O)c3ccc(Oc4ccc(O)c(Cl)c4)c(C#N)c3)c[nH]c12 (stereo not shown) [Compound 44] as well? 9.7

Would you mind doing Cc1cccc2c(CC3C(=O)N(CCCCCN)C(=O)N3S(=O)(=O)c3ccc(Oc4ccc(O)cc4)c(CN)c3)c[nH]c12 (stereo not shown) [Compound 45] as well? 11.4

====

# Procedure Details: in vivo
# Condition: male, Wistar, rat
Metric: bioavailability (%)
Numeric only. Scale: %

Which bioavailability value is on record for N#Cc1cc(S(=O)(=O)N2C(=O)N(CCCCCN)C(=O)C2Cc2c[nH]c3ccccc23)ccc1Oc1ccc(N)cc1 (stereo not shown) ? 1.3

====

Form: system (SSTR4 (Homo sapiens)), quantity (IC50), values below.

Which IC50 value is on record for Cc1cccc2c(CC3C(=O)N(CCCCCN)C(=O)N3S(=O)(=O)c3ccc(Oc4ccc(O)cc4)c(CN)c3)c[nH]c12 (stereo not drawn) [Compound 45] ? > 1 µM

Would you mind doing Cc1cccc2c(CC3C(=O)N(CCCCCN)C(=O)N3S(=O)(=O)c3ccc(Oc4ccc(O)cc4)c(C(=O)N(C)C)c3)c[nH]c12 (stereo not drawn) [Compound 46] as well? > 1 µM

Would you mind doing Cc1cccc2c(CC3C(=O)N(CCCCCN)C(=O)N3S(=O)(=O)c3ccc(Oc4ccc(O)cc4)c(C#N)c3)c[nH]c12 (stereo not drawn) [Compound 14] as well? > 1 µM
